ASSAYED_SYSTEM: Salicylate synthase (Mycobacterium tuberculosis (strain CDC 1551 / Oshkosh))
PROCEDURE_DETAILS: inhibitors of M. tuberculosis MbtI – biochemical, fluorescence intensity, primary screen (AID 493033)
SETTINGS: purified MbtI enzyme, fluorescence intensity read-out, hits give high values, concentration not given here
In all, about 100,000 compounds went through this assay and about 930 (0.93%) were called active. The sample holds actives, similar compounds and a random draw of the others, so the mix is not that of the screen.
MEASURED_PROPERTY: inhibition (%)

structure_as_smiles=O=C(CNCCCN1CCOCC1)Nc1cccc(C(F)(F)F)c1 measured_property=inhibition quantitative_result=14.8
structure_as_smiles=O=C(/C=C\c1cn(-c2ccccc2)nc1-c1cccs1)N1CCOCC1 measured_property=inhibition quantitative_result=-50.8
structure_as_smiles=c1ccc(C(N2CCOCC2)N2CCOCC2)cc1 measured_property=inhibition quantitative_result=-2.5
structure_as_smiles=COc1cccc(CN(C)C(=O)/C=C/c2ccco2)c1OC measured_property=inhibition quantitative_result=9.5
structure_as_smiles=COC(=O)c1ccc(C(=O)Nc2cc(Cl)ccc2Cl)cc1N measured_property=inhibition quantitative_result=-179
